system: NCI-H1963 (Small Cell Lung Carcinoma); assay: combination Emax (second highest fraction inhibited in the dose matrix, 72 h); higher = more inhibition; extreme values may be limits of the assay
Quick reference: combination Emax of the listed items.
I only need the number, thanks.

Consider the worked cases shown below.
[
  {
    "Compound": "COc1cccc(OCCCN)c1-c1cc(Nc2cnc(C#N)cn2)n[nH]1 [Prexasertib] + O=C(c1cc(Cc2n[nH]c(=O)c3ccccc23)ccc1F)N1CCN(C(=O)C2CC2)CC1 [Olaparib] (first compound max 1 µM, 7x7, partner max 10 µM)",
    "combination Emax": 0.908
  },
  {
    "Compound": "Cc1nc(Nc2ncc(C(=O)Nc3c(C)cccc3Cl)s2)cc(N2CCN(CCO)CC2)n1 [Dasatinib] + CC(=O)Nc1cccc(-n2c(=O)n(C3CC3)c(=O)c3c(Nc4ccc(I)cc4F)n(C)c(=O)c(C)c32)c1 [Trametinib] (first compound max 2 µM, 7x7, partner max 1 µM)",
    "combination Emax": 0.38
  },
  {
    "Compound": "COc1cccc(OCCCN)c1-c1cc(Nc2cnc(C#N)cn2)n[nH]1 [Prexasertib] + C=CCn1c(=O)c2cnc(Nc3ccc(N4CCN(C)CC4)cc3)nc2n1-c1cccc(C(C)(C)O)n1 [AZD1775] (first compound max 1 µM, partner max 1 µM)",
    "combination Emax": 1
  }
]

Requested field: combination Emax. Item: CC1(C)CCC(CN2CCN(c3ccc(C(=O)NS(=O)(=O)c4ccc(NCC5CCOCC5)c([N+](=O)[O-])c4)c(Oc4cnc5[nH]ccc5c4)c3)CC2)=C(c2ccc(Cl)cc2)C1 [Venetoclax] + CCN(CCO)CCCOc1ccc2c(Nc3cc(CC(=O)Nc4cccc(F)c4)[nH]n3)ncnc2c1 [AZD2811] (first compound max 1 µM, 7x7, partner max 1 µM)
0.893

Return reported combination Emax; argument: CC(=O)c1c(C)c2cnc(Nc3ccc(N4CCNCC4)cn3)nc2n(C2CCCC2)c1=O [Palbociclib] + Cc1c2c(nn1C)CSCc1cc(n(C)n1)CSc1cc(c3ccccc3c1)OCCCc1c(C(=O)O)n(C)c3c-2c(Cl)ccc13 [AZD5991] (first compound max 10 µM, 7x7, partner max 1 µM)
0.534

Could you tell me which combination Emax is on file for CCN(CCO)CCCOc1ccc2c(Nc3cc(CC(=O)Nc4cccc(F)c4)[nH]n3)ncnc2c1 [AZD2811] + O=C(c1cc(Cc2n[nH]c(=O)c3ccccc23)ccc1F)N1CCN(C(=O)C2CC2)CC1 [Olaparib] (first compound max 1 µM, 7x7, partner max 10 µM) ?
0.856

Consider the compound shown here: CC1(C)CCC(CN2CCN(c3ccc(C(=O)NS(=O)(=O)c4ccc(NCC5CCOCC5)c([N+](=O)[O-])c4)c(Oc4cnc5[nH]ccc5c4)c3)CC2)=C(c2ccc(Cl)cc2)C1 [Venetoclax] + C[C@@H](Nc1cc(F)cc(F)c1)c1cc(C(=O)N(C)C)cc2c(=O)cc(N3CCOCC3)oc12 [AZD8186] (first compound max 1 µM, 7x7, partner max 3 µM) What is its recorded combination Emax?
0.758

Which combination Emax is reported for this compound? NC1(C(=O)N[C@@H](CCO)c2ccc(Cl)cc2)CCN(c2ncnc3[nH]ccc23)CC1 [Capivasertib] + COc1nnc2ccc(N3CCC(c4ccc(OCCN5CCN(C)C(=O)[C@H]5C)cc4)CC3)nn12 [AZD5153] (first compound max 10 µM, 7x7, partner max 1 µM)
0.767

Give its combination Emax value. Item: C=CCn1c(=O)c2cnc(Nc3ccc(N4CCN(C)CC4)cc3)nc2n1-c1cccc(C(C)(C)O)n1 [AZD1775] + O=C(c1cc(Cc2n[nH]c(=O)c3ccccc23)ccc1F)N1CCN(C(=O)C2CC2)CC1 [Olaparib] (first compound max 1 µM, partner max 10 µM)
0.845

Quick one: combination Emax for Cc1c2c(nn1C)CSCc1cc(n(C)n1)CSc1cc(c3ccccc3c1)OCCCc1c(C(=O)O)n(C)c3c-2c(Cl)ccc13 [AZD5991] + Cc1cc2ncnn2cc1Nc1ncc2c(n1)n(C1CCOCC1)c(=O)n2C [AZD7648] (first compound max 1 µM, 7x7, partner max 10 µM) ?
0.334

---

test system: SK-CO-1 (Colorectal Carcinoma); assay: combination Emax (second highest fraction inhibited in the dose matrix, 72 h); higher = more inhibition; extreme values may be limits of the assay
Reported combination Emax values for the following compounds.

These solved cases illustrate the format of a correct answer.
[
  {
    "Compound": "C[C@@H]1COCCN1c1cc(C2([S@](C)(=N)=O)CC2)nc(-c2ccnc3[nH]ccc23)n1 [AZD6738] + C1CC(C1)(C(=O)[O-])C(=O)[O-].N.N.[Pt+2] [Carboplatin] (first compound max 10 µM, 7x7, partner max 10 µM)",
    "Measured Property": "combination Emax",
    "Measured": 0.808
  },
  {
    "Compound": "CN(C)CCCOc1ccc(-c2ccc3ncc4c(c3c2)n(C2CCOCC2)c(=O)n4C)cn1 [AZD0156] + CCN(CCO)CCCOc1ccc2c(Nc3cc(CC(=O)Nc4cccc(F)c4)[nH]n3)ncnc2c1 [AZD2811] (first compound max 1 µM, 7x7, partner max 1 µM)",
    "Measured Property": "combination Emax",
    "Measured": 0.798
  }
]

Please turn your attention to the following entry.
Consider the compound shown here: Cn1cnc2c(F)c(Nc3ccc(Br)cc3Cl)c(C(=O)NOCCO)cc21 [Selumetinib] + C[C@@H]1COCCN1C2=NC(=NC(=C2)C3(CC3)[S@](=N)(=O)C)C4=C5C=CNC5=NC=C4 [AZD6738] (first compound max 10 µM, 7x7, partner max 10 µM) What is its recorded combination Emax?
0.808

---

system: NCI-H3118 (Head and Neck Carcinoma); assay: Bliss excess, mean over the matrix (fraction); higher = more synergy;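 note: after 72 h of two-drug dosing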
Measured Property: Bliss excess
Output spec: single numeric token, no unit.

Examples with their reported Bliss excess follow.
[
  {
    "Molecule": "O=C(c1cc(Cc2n[nH]c(=O)c3ccccc23)ccc1F)N1CCN(C(=O)C2CC2)CC1 [Olaparib] + Cc1c2c(nn1C)CSCc1cc(n(C)n1)CSc1cc(c3ccccc3c1)OCCCc1c(C(=O)O)n(C)c3c-2c(Cl)ccc13 [AZD5991] (first compound max 10 µM, 7x7, partner max 1 µM)",
    "Measured": -0.006
  },
  {
    "Molecule": "CN(CCO)CC[C@H](CSc1ccccc1)Nc1ccc(S(=O)(=O)NC(=O)c2ccc(N3CCC([C@@H](O)c4ccccc4-c4ccc(Cl)cc4)CC3)cc2)cc1S(=O)(=O)C(F)(F)F [AZD4320] + CC(=O)O[C@H]1C(=O)[C@@]2(C)[C@H]([C@H](OC(=O)c3ccccc3)[C@]3(O)C[C@H](OC(=O)[C@H](O)[C@@H](NC(=O)c4ccccc4)c4ccccc4)C(C)=C1C3(C)C)[C@]1(OC(C)=O)CO[C@@H]1C[C@@H]2O [Paclitaxel] (first compound max 1 µM, 7x7, partner max 3 µM)",
    "Measured": 0.019
  }
]

What does the data say about its Bliss excess? Entry: Cc1cc2ncnn2cc1Nc1ncc2c(n1)n(C1CCOCC1)c(=O)n2C [AZD7648] + O=C(c1cc(Cc2n[nH]c(=O)c3ccccc23)ccc1F)N1CCN(C(=O)C2CC2)CC1 [Olaparib] (first compound max 10 µM, 7x7, partner max 10 µM)
-0.0223

# Bliss excess lookup, item C[C@@H](c1ccc2nccn2c1)n1nnc2ncc(-c3cnn(C)c3)nc21 [Savolitinib] + Cc1c2c(nn1C)CSCc1cc(n(C)n1)CSc1cc(c3ccccc3c1)OCCCc1c(C(=O)O)n(C)c3c-2c(Cl)ccc13 [AZD5991] (first compound max 1 µM, 7x7, partner max 1 µM)
-0.0268

---

test system: RCC-JW (Kidney Carcinoma); assay: combination Emax (second highest fraction inhibited in the dose matrix, 72 h); higher = more inhibition; extreme values may be limits of the assay
Measured Property: combination Emax
API doc: respond with a numeric literal and nothing else, no unit.

Here are 5 compounds together with their reported answers.
[
  {
    "Compound": "C=CCn1c(=O)c2cnc(Nc3ccc(N4CCN(C)CC4)cc3)nc2n1-c1cccc(C(C)(C)O)n1 [AZD1775] + C1CN(CCC1(C(=O)N[C@@H](CCO)C2=CC=C(C=C2)Cl)N)C3=NC=NC4=C3C=CN4 [Capivasertib] (first compound max 3 µM, partner max 3 µM)",
    "Assay Target": "RCC-JW (Kidney Carcinoma)",
    "combination Emax": 0.619
  },
  {
    "Compound": "Cc1cc2ncnn2cc1Nc1ncc2c(n1)n(C1CCOCC1)c(=O)n2C [AZD7648] + COc1cc([C@@H]2c3cc4c(cc3[C@@H](O[C@@H]3O[C@@H]5CO[C@@H](C)O[C@H]5[C@H](O)[C@H]3O)[C@H]3COC(=O)[C@H]23)OCO4)cc(OC)c1O [Etoposide] (first compound max 10 µM, 7x7, partner max 10 µM)",
    "Assay Target": "RCC-JW (Kidney Carcinoma)",
    "combination Emax": 0.56
  },
  {
    "Compound": "NC1(C(=O)N[C@@H](CCO)c2ccc(Cl)cc2)CCN(c2ncnc3[nH]ccc23)CC1 [Capivasertib] + CCN(CCO)CCCOc1ccc2c(Nc3cc(CC(=O)Nc4cccc(F)c4)[nH]n3)ncnc2c1 [AZD2811] (first compound max 10 µM, 7x7, partner max 1 µM)",
    "Assay Target": "RCC-JW (Kidney Carcinoma)",
    "combination Emax": 0.358
  },
  {
    "Compound": "Cc1cc2ncnn2cc1Nc1ncc2c(n1)n(C1CCOCC1)c(=O)n2C [AZD7648] + C=CCn1c(=O)c2cnc(Nc3ccc(N4CCN(C)CC4)cc3)nc2n1-c1cccc(C(C)(C)O)n1 [AZD1775] (first compound max 10 µM, partner max 1 µM)",
    "Assay Target": "RCC-JW (Kidney Carcinoma)",
    "combination Emax": 0.413
  },
  {
    "Compound": "Cc1cc2ncnn2cc1Nc1ncc2c(n1)n(C1CCOCC1)c(=O)n2C [AZD7648] + C[C@@H]1COCCN1C2=NC(=NC(=C2)C3(CC3)[S@](=N)(=O)C)C4=C5C=CNC5=NC=C4 [AZD6738] (first compound max 10 µM, 7x7, partner max 10 µM)",
    "Assay Target": "RCC-JW (Kidney Carcinoma)",
    "combination Emax": 0.568
  }
]

State the recorded combination Emax for this entry: CN(CCO)CC[C@H](CSc1ccccc1)Nc1ccc(S(=O)(=O)NC(=O)c2ccc(N3CCC([C@@H](O)c4ccccc4-c4ccc(Cl)cc4)CC3)cc2)cc1S(=O)(=O)C(F)(F)F [AZD4320] + C1CN(CCC1(C(=O)N[C@@H](CCO)C2=CC=C(C=C2)Cl)N)C3=NC=NC4=C3C=CN4 [Capivasertib] (first compound max 1 µM, 7x7, partner max 3 µM)
0.615

GET /values?readout=combination Emax&item= CCN(CCO)CCCOc1ccc2c(Nc3cc(CC(=O)Nc4cccc(F)c4)[nH]n3)ncnc2c1 [AZD2811] + O=C(c1cc(Cc2n[nH]c(=O)c3ccccc23)ccc1F)N1CCN(C(=O)C2CC2)CC1 [Olaparib] (first compound max 1 µM, 7x7, partner max 10 µM)
0.183
